Counter-ions that a name gives are not always drawn.

molecule: CCc1nc(N)nc(N)c1OCc1coc(-c2ccc(OCC(=O)O)cc2)n1 (as salt: hydrochloride) (hydrate or solvate)
melting point: 195.5 to 197.5 °C
//
molecule: CCc1nc(N)nc(N)c1OCCc1csc(-c2ccccc2)n1 (as salt: hydrochloride)
melting point: 215 to 217 °C
//
molecule: CCc1nc(N)nc(N)c1OCCCc1cc(-c2cccc(C(=O)O)c2)no1.Cl
melting point: 219 to 220.5 °C
//
molecule: CCc1nc(N)nc(N)c1OCCc1coc(-c2ccc(C(=O)O)cc2)n1 (as salt: hydrochloride)
melting point: 330 to 332 °C
